# Experimental Target: BChE from equine serum (Equus caballus, UniProt P81908)
# Construct: butyrylcholinesterase from equine serum
# Sequence (P81908 whole entry): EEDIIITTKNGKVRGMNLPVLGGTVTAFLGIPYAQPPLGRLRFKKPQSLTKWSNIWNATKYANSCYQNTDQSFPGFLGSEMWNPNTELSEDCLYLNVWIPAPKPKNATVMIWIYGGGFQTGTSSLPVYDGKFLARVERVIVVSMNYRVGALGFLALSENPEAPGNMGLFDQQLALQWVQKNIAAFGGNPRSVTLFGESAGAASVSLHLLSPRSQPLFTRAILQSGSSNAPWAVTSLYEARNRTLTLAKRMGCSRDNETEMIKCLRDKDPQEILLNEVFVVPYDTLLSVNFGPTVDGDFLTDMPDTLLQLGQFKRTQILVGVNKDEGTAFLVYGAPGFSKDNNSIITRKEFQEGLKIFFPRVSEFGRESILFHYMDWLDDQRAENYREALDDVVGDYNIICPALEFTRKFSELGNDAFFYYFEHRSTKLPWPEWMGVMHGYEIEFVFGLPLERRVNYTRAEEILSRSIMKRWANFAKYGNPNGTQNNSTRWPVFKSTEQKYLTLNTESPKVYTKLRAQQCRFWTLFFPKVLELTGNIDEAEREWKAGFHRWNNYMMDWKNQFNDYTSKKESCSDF
# Assay Text: BChE inhibition, modified Ellman's method
Measured pIC50 values are reported for all entries that follow.
Just so you know, pIC50 here is -log10 of the concentration in molar units; reply with that number alone.

Please review the following examples before continuing.
- Structure Notation: "CCOP(=S)(OCC)Oc1ccc(Br)cc1C(=O)Nc1ccc(Cl)c(Cl)c1"
  Reported Measurement: 4.73
- Structure Notation: "CCOP(=S)(OCC)Oc1ccc(Br)cc1C(=O)Nc1cccc(Cl)c1"
  Reported Measurement: 4.86
- Structure Notation: "CCOP(=S)(OCC)Oc1ccc(Br)cc1C(=O)Nc1cccc(F)c1"
  Reported Measurement: 4.91
- Structure Notation: "CCOP(=S)(OCC)Oc1ccc(Cl)cc1C(=O)Nc1cccc(Cl)c1"
  Reported Measurement: 4.83
- Structure Notation: "CCOP(=S)(OCC)Oc1ccc(Cl)cc1C(=O)Nc1cccc(C(F)(F)F)c1"
  Reported Measurement: 4.70
- Structure Notation: "CCOP(=S)(OCC)Oc1ccc(Br)cc1C(=O)Nc1ccc(F)cc1"
  Reported Measurement: 4.90

Query (molecule): CCOP(=S)(OCC)Oc1ccc(Br)cc1C(=O)Nc1cccc(C(F)(F)F)c1 ; field requested: pIC50 4.70

Follow-up item: CCOP(=S)(OCC)Oc1ccc(Cl)cc1C(=O)Nc1ccc(F)cc1 4.83

====

Measured IC50 on AChE from electric eel (Electrophorus electricus, UniProt O42275) follows.
Sequence (O42275 24-633): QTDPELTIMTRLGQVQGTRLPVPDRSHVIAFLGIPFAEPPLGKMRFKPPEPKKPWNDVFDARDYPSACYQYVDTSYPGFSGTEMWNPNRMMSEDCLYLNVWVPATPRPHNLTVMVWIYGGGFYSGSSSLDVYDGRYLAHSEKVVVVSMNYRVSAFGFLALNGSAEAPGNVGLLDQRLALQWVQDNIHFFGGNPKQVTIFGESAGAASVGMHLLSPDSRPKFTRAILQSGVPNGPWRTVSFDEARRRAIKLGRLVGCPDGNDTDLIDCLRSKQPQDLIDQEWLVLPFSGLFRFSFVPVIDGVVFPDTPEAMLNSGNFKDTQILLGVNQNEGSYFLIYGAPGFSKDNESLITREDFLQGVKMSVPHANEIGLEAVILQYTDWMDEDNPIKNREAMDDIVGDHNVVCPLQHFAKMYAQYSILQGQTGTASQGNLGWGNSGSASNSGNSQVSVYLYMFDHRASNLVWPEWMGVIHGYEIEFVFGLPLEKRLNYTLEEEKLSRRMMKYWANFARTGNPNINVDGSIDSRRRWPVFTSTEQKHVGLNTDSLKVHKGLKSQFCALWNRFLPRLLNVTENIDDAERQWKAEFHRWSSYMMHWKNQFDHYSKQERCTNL
Express it in µM; write the number only.

Please review the following examples before continuing.
- Structure Notation: "CCOP(=S)(OCC)Oc1cc(Cl)ccc1C(=O)Nc1ccc(Br)cc1"
  IC50 [µM]: 10.1
- Structure Notation: "CCOP(=S)(OCC)Oc1cc(Cl)ccc1C(=O)Nc1cccc(F)c1"
  IC50 [µM]: 8.04
- Structure Notation: "CCOP(=S)(OCC)Oc1ccc(Br)cc1C(=O)Nc1ccc(Cl)c(Cl)c1"
  IC50 [µM]: 14
- Structure Notation: "CCOP(=S)(OCC)Oc1ccc(Br)cc1C(=O)Nc1cccc(C(F)(F)F)c1"
  IC50 [µM]: 13

Query (compound): CCOP(=S)(OCC)Oc1ccc(Cl)cc1C(=O)Nc1ccc(Br)cc1 ; field requested: IC50 9.32

Follow-up item: CCOP(=S)(OCC)Oc1ccc(Cl)cc1C(=O)Nc1cccc(Br)c1 14.1

Follow-up item: CCOP(=S)(OCC)Oc1cc(Cl)ccc1C(=O)Nc1ccc(Cl)c(Cl)c1 9.56

Follow-up item: CCOP(=S)(OCC)Oc1cc(Cl)ccc1C(=O)Nc1cccc(C(F)(F)F)c1 11.4

Follow-up item: CCOP(=S)(OCC)Oc1ccc(Br)cc1C(=O)Nc1ccc(C(F)(F)F)cc1 11.2

Follow-up item: CCOP(=S)(OCC)Oc1cc(Cl)ccc1C(=O)Nc1cccc(Cl)c1 9.79

====

Measured IC50 values are reported for all entries that follow.
# Experimental Target: BChE from equine serum (Equus caballus)
# Construct: butyrylcholinesterase from equine serum
# Assay Text: BChE inhibition, modified Ellman's method
Express it in µM; write the number only.

Please review the following examples before continuing.
- Molecule: "CCOP(=S)(OCC)Oc1ccc(Br)cc1C(=O)Nc1ccc(Cl)cc1 [1b]"
  Experimental Target: "BChE from equine serum (Equus caballus)"
  Reported Measurement: 13.5
- Molecule: "CCOP(=S)(OCC)Oc1ccc(Cl)cc1C(=O)Nc1cccc(F)c1 [1o]"
  Experimental Target: "BChE from equine serum (Equus caballus)"
  Reported Measurement: 11.8
- Molecule: "CCOP(=S)(OCC)Oc1cc(Cl)ccc1C(=O)Nc1ccc(F)cc1 [1y]"
  Experimental Target: "BChE from equine serum (Equus caballus)"
  Reported Measurement: 8.67
- Molecule: "CCOP(=S)(OCC)Oc1ccc(Cl)cc1C(=O)Nc1ccc(Cl)cc1 [1k]"
  Experimental Target: "BChE from equine serum (Equus caballus)"
  Reported Measurement: 12.7
- Molecule: "CCOP(=S)(OCC)Oc1ccc(Br)cc1C(=O)Nc1ccc(C(F)(F)F)cc1 [1i]"
  Experimental Target: "BChE from equine serum (Equus caballus)"
  Reported Measurement: 20.2

Query (molecule): CCOP(=S)(OCC)Oc1cc(Cl)ccc1C(=O)Nc1ccc(Br)cc1 [1w] ; field requested: IC50 16.4

Follow-up item: CCOP(=S)(OCC)Oc1ccc(Br)cc1C(=O)Nc1ccc(Br)cc1 [1e] 18.9

Follow-up item: CCOP(=S)(OCC)Oc1ccc(Br)cc1C(=O)Nc1cccc(Br)c1 [1d] 20

Follow-up item: CCOP(=S)(OCC)Oc1cc(Cl)ccc1C(=O)Nc1ccc(C(F)(F)F)cc1 [1zz] 18.3

Follow-up item: CCOP(=S)(OCC)Oc1cc(Cl)ccc1C(=O)Nc1cccc(Cl)c1 [1s] 12.5

====

Measured MIC values are reported for all entries that follow.
# Test system: M. kansasii My 235/80
# Assay Text: microbe, parasite or virus in culture
# Type: cell-based, Mycobacterium kansasii
# Condition Parameters: Mycobacterium kansasii, MY235/80, 168 h; 7 d, 37 °C; read-out: MIC M. kansasii 235/80 7 d
Express it in µM; write the number only.

Please review the following examples before continuing.
- Structure Notation: "CCOP(=S)(OCC)Oc1ccc(Cl)cc1C(=O)Nc1ccc(Br)cc1"
  MIC, µM: 250
- Structure Notation: "CCOP(=S)(OCC)Oc1cc(Cl)ccc1C(=O)Nc1ccc(Cl)c(Cl)c1"
  MIC, µM: 32
- Structure Notation: "CCOP(=S)(OCC)Oc1ccc(Cl)cc1C(=O)Nc1ccc(C(F)(F)F)cc1"
  MIC, µM: 62.5

Query (compound): CCOP(=S)(OCC)Oc1cc(Cl)ccc1C(=O)Nc1cccc(F)c1 ; field requested: MIC 32

====

# Tested on: M. avium My 330/88
# Assay Text: microbe, parasite or virus in culture
# Format: cell-based, Mycobacterium avium
# Condition Parameters: all MIC values (14 and 21 d)
Measured MIC values against M. avium values are reported for all entries that follow.

- Structure Notation: "CCOP(=S)(OCC)Oc1ccc(Br)cc1C(=O)Nc1ccc(C(F)(F)F)cc1"
  MIC values against M. avium: "≤ 250 µM"
- Structure Notation: "CCOP(=S)(OCC)Oc1cc(Cl)ccc1C(=O)Nc1ccc(Cl)cc1"
  MIC values against M. avium: "≤ 250 µM"

Let's switch to this molecule now.
Query (molecule): CCOP(=S)(OCC)Oc1cc(Cl)ccc1C(=O)Nc1ccc(C(F)(F)F)cc1 ; field requested: MIC values against M. avium ≤ 250 µM

====

# System: M. kansasii My 235/80
# Assay Text: microbe, parasite or virus in culture
# Type: cell-based, Mycobacterium kansasii
# Condition Parameters: Mycobacterium kansasii, MY235/80, 168 h; 7 d, 37 °C; read-out: MIC M. kansasii 235/80 7 d
Metric: MIC (µM)
Express it in µM; write the number only.

Please review the following examples before continuing.
- Compound: "CCOP(=S)(OCC)Oc1ccc(Br)cc1C(=O)Nc1ccc(Cl)c(Cl)c1"
  MIC [µM]: 62.5
- Compound: "Nc1ccc(C(=O)O)c(O)c1 [PAS, para-aminosalicylic acid, reference compound]"
  MIC [µM]: 125
- Compound: "CCOP(=S)(OCC)Oc1ccc(Br)cc1C(=O)Nc1cccc(C(F)(F)F)c1"
  MIC [µM]: 32

Let's switch to this compound now.
Query (compound): CCOP(=S)(OCC)Oc1ccc(Br)cc1C(=O)Nc1cccc(Cl)c1 ; field requested: MIC 125

====

# Experimental Target: BChE from equine serum (Equus caballus, UniProt P81908)
# Construct: butyrylcholinesterase from equine serum
# Assay Text: BChE inhibition, modified Ellman's method
Metric: pIC50
Just so you know, pIC50 here is -log10 of the concentration in molar units; reply with that number alone.

Query (compound): CCOP(=S)(OCC)Oc1cc(Cl)ccc1C(=O)Nc1ccc(Cl)cc1 [1t] ; field requested: pIC50 4.86

Follow-up item: CCOP(=S)(OCC)Oc1ccc(Cl)cc1C(=O)Nc1ccc(Br)cc1 [1n] 4.82

Follow-up item: CCOP(=S)(OCC)Oc1ccc(Cl)cc1C(=O)Nc1cccc(Br)c1 [1m] 4.82

Follow-up item: CCOP(=S)(OCC)Oc1cc(Cl)ccc1C(=O)Nc1cccc(Br)c1 [1v] 4.83

Follow-up item: CCOP(=S)(OCC)Oc1ccc(Cl)cc1C(=O)Nc1ccc(C(F)(F)F)cc1 [1r] 4.81

Follow-up item: CCOP(=S)(OCC)Oc1cc(Cl)ccc1C(=O)Nc1cccc(F)c1 [1x] 5.06

Follow-up item: CCOP(=S)(OCC)Oc1cc(Cl)ccc1C(=O)Nc1cccc(C(F)(F)F)c1 [1z] 4.82

Follow-up item: CCOP(=S)(OCC)Oc1ccc(Cl)cc1C(=O)Nc1ccc(Cl)c(Cl)c1 [1l] 4.76

Follow-up item: CCOP(=S)(OCC)Oc1cc(Cl)ccc1C(=O)Nc1ccc(Cl)c(Cl)c1 [1u] 4.83
